test: self-splicing fitness, log relative to wild type (ln ratio); higher = more splicing; Tetrahymena group I intron in knt gene, E. coli kanamycin selection, DiMSum; sequences stand for … in CUCUCU…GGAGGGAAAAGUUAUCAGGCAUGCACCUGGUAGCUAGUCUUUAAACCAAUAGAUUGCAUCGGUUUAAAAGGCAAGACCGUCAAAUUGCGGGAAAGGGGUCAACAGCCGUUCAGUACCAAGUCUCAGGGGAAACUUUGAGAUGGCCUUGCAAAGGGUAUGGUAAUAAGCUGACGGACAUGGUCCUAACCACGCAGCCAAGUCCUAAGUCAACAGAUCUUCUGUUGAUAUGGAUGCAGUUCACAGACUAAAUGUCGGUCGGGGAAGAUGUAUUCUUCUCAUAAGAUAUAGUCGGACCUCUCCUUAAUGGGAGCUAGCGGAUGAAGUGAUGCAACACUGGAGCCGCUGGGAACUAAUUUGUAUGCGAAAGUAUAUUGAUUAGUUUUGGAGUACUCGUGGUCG; conditions: 30 °C;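 further: selection with 25 µg/mL kanamycin versus none on LB agar overnight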
Okay, here is how we bin by self-splicing fitness (ln): low class = under -3, middle class = from -3 up to -2, high class = -2 and over

- Sequence text: "UCUCAGCAAUAUUACGCGAU"
  Class: "low class"
- Sequence text: "CCAAAGCAAUAUUACGUCCU"
  Class: "low class"
- Sequence text: "GGUCAGCAAUAUUACGUAUU"
  Class: "high class"

Please look at the following sequence next.
Form field 'band' for AAUGAGCAAUAUUACGUAAG middle class

###

Measured self-splicing fitness (ln) values are reported for all entries that follow.
test: self-splicing fitness, log relative to wild type (ln ratio); higher = more splicing; Tetrahymena group I intron in knt gene, E. coli kanamycin selection, DiMSum; sequences stand for … in CUCUCU…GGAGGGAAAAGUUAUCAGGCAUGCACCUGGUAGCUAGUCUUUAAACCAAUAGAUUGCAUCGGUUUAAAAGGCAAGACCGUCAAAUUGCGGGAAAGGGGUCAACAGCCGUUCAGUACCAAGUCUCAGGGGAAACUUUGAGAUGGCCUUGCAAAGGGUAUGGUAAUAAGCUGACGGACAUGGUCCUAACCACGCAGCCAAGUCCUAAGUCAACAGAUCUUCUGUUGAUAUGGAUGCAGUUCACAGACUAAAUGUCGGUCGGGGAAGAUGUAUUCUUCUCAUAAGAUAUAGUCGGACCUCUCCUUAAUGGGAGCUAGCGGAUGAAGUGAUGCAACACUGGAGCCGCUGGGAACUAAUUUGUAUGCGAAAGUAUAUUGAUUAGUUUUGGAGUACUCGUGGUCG; conditions: 30 °C

- Sequence text: "UAUUAGCAAUAUUACGACUA"
  self-splicing fitness (ln): -0.146
- Sequence text: "ACGAAGCAAUAUUACGUCGC"
  self-splicing fitness (ln): -3.22
- Sequence text: "AGCUAGCAAUAUUACGAAGC"
  self-splicing fitness (ln): -3.35
- Sequence text: "UUGCAGCAAUAUUACGAUUG"
  self-splicing fitness (ln): -1.62
- Sequence text: "AGGCAGCAAUAUUACGAUGG"
  self-splicing fitness (ln): -3.56

For reference, reported self-splicing fitness (ln) for AAGCAGCAAUAUUACGCAAG stands at -2.43

For reference, reported self-splicing fitness (ln) for GGGCAGCAAUAUUACGAAGC stands at -1.64

For reference, reported self-splicing fitness (ln) for AAACAGCAAUAUUACGAAUC stands at -4.43

For reference, reported self-splicing fitness (ln) for GCGAAGCAAUAUUACGAGUC stands at -2.93

For reference, reported self-splicing fitness (ln) for CUGAAGCAAUAUUACGUGCG stands at 0.0994

For reference, reported self-splicing fitness (ln) for AAAGAGCAAUAUUACGCGUG stands at -3.02

For reference, reported self-splicing fitness (ln) for GUCGAGCAAUAUUACGAUUC stands at -1.64

For reference, reported self-splicing fitness (ln) for GUGCAGCAAUAUUACGGAGC stands at -1.85

For reference, reported self-splicing fitness (ln) for CGCAAGCAAUAUUACGCCCA stands at -0.622

For reference, reported self-splicing fitness (ln) for AAGUAGCAAUAUUACGCAUG stands at -2.05

For reference, reported self-splicing fitness (ln) for UCGUAGCAAUAUUACGAGUC stands at -3.23

For reference, reported self-splicing fitness (ln) for UAAUAGCAAUAUUACGAUAG stands at -2.06
